Cited source for all entries: ChEMBL document CHEMBL1156144

- Experiment Notes: Oral bioavailability in Sprague-Dawley rat at 10 mg/kg
- Type: ADME, organism-based
- Experimental Context: in vivo

Structure: N#Cc1cc(Cl)cc(Oc2cc(OCc3n[nH]c4nc(N)ccc34)cc(F)c2Cl)c1
bioavailability [%]: 49

---

- Experiment Notes: Clearance in Sprague-Dawley rat at 2 mg/kg, iv
- Assay type: ADME, organism-based
- Parameters: dose 2 mg/kg, route intravenous
- Experimental Context: in vivo
# cutoff 30 mL/min/kg applies to clearance; >= gives fulfilled, < gives not fulfilled

Structure: N#Cc1cc(Cl)cc(Oc2cc(OCc3noc4nc(N)ccc34)cc(F)c2Cl)c1
Cat: fulfilled
--
Structure: N#Cc1cc(Cl)cc(Oc2cc(OCc3n[nH]c4nc(N)ccc34)cc(F)c2Cl)c1
Cat: not fulfilled
--
Structure: N#Cc1cc(Cl)cc(Oc2cc(OCc3noc4nc(N)ccc34)ccc2Cl)c1
Cat: fulfilled
--
Structure: N#Cc1cc(Cl)cc(Oc2cc(OCc3n[nH]c4ncccc34)cc(Cl)c2Cl)c1
Cat: not fulfilled
--
Structure: CNc1ccc2c(COc3ccc(Cl)c(Oc4cc(Cl)cc(C#N)c4)c3)noc2n1
Cat: not fulfilled
--
Structure: N#Cc1cc(Cl)cc(Oc2cc(OCc3noc4nc(-n5ccnc5)ccc34)ccc2Cl)c1
Cat: not fulfilled
--
Structure: N#Cc1cc(Cl)cc(Oc2cc(OCc3n[nH]c4nc(N)ccc34)ccc2Cl)c1
Cat: not fulfilled

---

Attribute: IC50
- System: Human immunodeficiency virus
- Experiment Notes: Antiviral activity against HIV with reverse transcriptase K101E/Y181C/G190A mutant assessed as inhibition of viral replication
- Type: functional, organism-based
- Experimental Context: Human immunodeficiency virus 1

Compound: N#Cc1cc(Cl)cc(Oc2cc(OCc3n[nH]c4nc(N)ccc34)cc(F)c2Cl)c1
IC50 / nM: 19.2
--
Compound: O=C1Nc2ccc(Cl)cc2[C@@](C#CC2CC2)(C(F)(F)F)O1 [EFAVIRENZ]
IC50 / nM: 106
--
Compound: N#Cc1cc(Cl)cc(Oc2cc(OCc3n[nH]c4nc(N)ccc34)ccc2Cl)c1
IC50 / nM: 29.5
--
Compound: N#Cc1cc(Cl)cc(Oc2cc(OCc3n[nH]c4ncccc34)ccc2Cl)c1
IC50 / nM: 11.6

---

- Target Or System: Cytochrome P450 3A4 (Homo sapiens)
- Sequence (P08684 whole entry): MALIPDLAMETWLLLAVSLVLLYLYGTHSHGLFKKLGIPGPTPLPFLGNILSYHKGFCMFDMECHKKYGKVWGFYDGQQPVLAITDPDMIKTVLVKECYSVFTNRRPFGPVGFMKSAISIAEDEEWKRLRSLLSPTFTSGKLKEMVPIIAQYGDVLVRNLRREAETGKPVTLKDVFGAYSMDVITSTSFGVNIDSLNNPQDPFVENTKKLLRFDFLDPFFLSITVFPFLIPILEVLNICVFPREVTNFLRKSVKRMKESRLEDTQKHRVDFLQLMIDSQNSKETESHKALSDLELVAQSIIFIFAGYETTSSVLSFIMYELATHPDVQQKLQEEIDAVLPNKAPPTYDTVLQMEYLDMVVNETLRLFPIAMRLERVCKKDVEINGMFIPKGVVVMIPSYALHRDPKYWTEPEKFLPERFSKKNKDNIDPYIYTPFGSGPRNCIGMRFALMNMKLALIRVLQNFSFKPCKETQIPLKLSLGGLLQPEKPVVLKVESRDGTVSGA
Recorded Endpoint: IC50 (µM)

Structure: N#Cc1cc(Cl)cc(Oc2cc(OCc3n[nH]c4nc(N)ccc34)cc(F)c2Cl)c1
Target Or System: Cytochrome P450 3A4 (Homo sapiens)
Units Of Measure: µM
Measured Number: 4.4

---

- Experiment Notes: Inhibition of RNA-dependent DNA polymerase activity of wild type HIV reverse transcriptase assessed as BrdU incorporation by standard ECL assay
- Set-up: species or system Human immunodeficiency virus
Recorded Endpoint: Ki (nM)

Structure: N#Cc1cc(Cl)cc(Oc2cc(OCc3noc4nc(N)ccc34)cc(F)c2Cl)c1
Recorded Endpoint: Ki
Measured Number: 0.2
//
Structure: N#Cc1cc(Cl)cc(Oc2cc(OCc3noc4nc(N5CCCCC5)ccc34)ccc2Cl)c1
Recorded Endpoint: Ki
Measured Number: 2.2
//
Structure: N#Cc1cc(Cl)cc(Oc2cc(F)c(Cl)c(OCc3n[nH]c4nc(N)ccc34)c2)c1
Recorded Endpoint: Ki
Measured Number: 120
//
Structure: N#Cc1cc(Cl)cc(Oc2cc(OCc3n[nH]c4nc(N)ccc34)cc(F)c2Cl)c1
Recorded Endpoint: Ki
Measured Number: 0.1
//
Structure: N#Cc1cc(Cl)cc(Oc2cc(OCc3noc4ncccc34)ccc2Cl)c1
Recorded Endpoint: Ki
Measured Number: 1.6
//
Structure: N#Cc1cc(Cl)cc(Oc2cc(OCc3n[nH]c4ncccc34)cc(Cl)c2Cl)c1
Recorded Endpoint: Ki
Measured Number: 2.7
//
Structure: N#Cc1cc(Cl)cc(Oc2cc(OCc3noc4nc(N5CCOCC5)ccc34)ccc2Cl)c1
Recorded Endpoint: Ki
Measured Number: 1.8
//
Structure: N#Cc1cc(Cl)cc(Oc2cc(OCc3n[nH]c4ncccc34)cc(F)c2Cl)c1
Recorded Endpoint: Ki
Measured Number: 0.5
//
Structure: N#Cc1cc(Cl)cc(Oc2cc(F)cc(OCc3n[nH]c4nc(N)ccc34)c2)c1
Recorded Endpoint: Ki
Measured Number: 2
//
Structure: Cc1cc(OCc2n[nH]c3ncccc23)cc(Oc2cc(Cl)cc(C#N)c2)c1Cl
Recorded Endpoint: Ki
Measured Number: 0.4
//
Structure: N#Cc1cc(Cl)cc(Oc2cc(OCc3noc4nc(N)ccc34)ccc2Cl)c1
Recorded Endpoint: Ki
Measured Number: 0.3
//
Structure: N#Cc1cc(Cl)cc(Oc2ccc(Cl)c(OCc3n[nH]c4ncccc34)c2)c1
Recorded Endpoint: Ki
Measured Number: 17
//
Structure: N#Cc1cc(Cl)cc(Oc2cc(OCc3noc4nc(C5=NCCN5)ccc34)ccc2Cl)c1
Recorded Endpoint: Ki
Measured Number: 2.3
//
Structure: N#Cc1cc(Cl)cc(Oc2cc(OCc3noc4nc(-n5ccnc5)ccc34)ccc2Cl)c1
Recorded Endpoint: Ki
Measured Number: 0.2
//
Structure: CN(C)c1ccc2c(COc3ccc(Cl)c(Oc4cc(Cl)cc(C#N)c4)c3)noc2n1
Recorded Endpoint: Ki
Measured Number: 0.3
//
Structure: N#Cc1cc(Cl)cc(Oc2cc(F)c(Cl)c(OCc3n[nH]c4ncccc34)c2)c1
Recorded Endpoint: Ki
Measured Number: 5.2
//
Structure: N#Cc1cc(Cl)cc(Oc2cc(OCc3noc4nc(N5CCNCC5)ccc34)ccc2Cl)c1
Recorded Endpoint: Ki
Measured Number: 1.7
//
Structure: N#Cc1cc(Cl)cc(Oc2cc(OCc3n[nH]c4nc(N)ccc34)ccc2Cl)c1
Recorded Endpoint: Ki
Measured Number: 0.2
//
Structure: CNc1ccc2c(COc3ccc(Cl)c(Oc4cc(Cl)cc(C#N)c4)c3)noc2n1
Recorded Endpoint: Ki
Measured Number: 0.3
//
Structure: N#Cc1cc(Cl)cc(Oc2ccc(F)c(OCc3n[nH]c4ncccc34)c2)c1
Recorded Endpoint: Ki
Measured Number: 47
//
Structure: N#Cc1cc(Cl)cc(Oc2cc(OCc3n[nH]c4ncccc34)ccc2Cl)c1
Recorded Endpoint: Ki
Measured Number: 0.1

---

- Target Or System: Human immunodeficiency virus type 1 reverse transcriptase (Human immunodeficiency virus 1, UniProt Q72547, K103N)
- Experiment Notes: Inhibition of RNA-dependent DNA polymerase activity of recombinant HIV reverse transcriptase K103N mutant assessed as BrdU incorporation by standard ECL assay
pKi: −log10 of the molar value.
Below, each entry is listed alongside its reported pKi.

Structure: CNc1ccc2c(COc3ccc(Cl)c(Oc4cc(Cl)cc(C#N)c4)c3)noc2n1
Qualifying Sign: =
pKi: 9.05

Structure: N#Cc1cc(Cl)cc(Oc2ccc(Cl)c(OCc3n[nH]c4ncccc34)c2)c1
Qualifying Sign: =
pKi: 6.85

Structure: N#Cc1cc(Cl)cc(Oc2cc(OCc3noc4nc(N5CCNCC5)ccc34)ccc2Cl)c1
Qualifying Sign: =
pKi: 8.52

Structure: N#Cc1cc(Cl)cc(Oc2cc(OCc3n[nH]c4nc(N)ccc34)cc(F)c2Cl)c1
Qualifying Sign: =
pKi: 9.40

Structure: N#Cc1cc(Cl)cc(Oc2cc(F)c(Cl)c(OCc3n[nH]c4nc(N)ccc34)c2)c1
Qualifying Sign: <
pKi: 6.04

Structure: CN(C)c1ccc2c(COc3ccc(Cl)c(Oc4cc(Cl)cc(C#N)c4)c3)noc2n1
Qualifying Sign: =
pKi: 9.05

Structure: N#Cc1cc(Cl)cc(Oc2ccc(F)c(OCc3n[nH]c4ncccc34)c2)c1
Qualifying Sign: =
pKi: 6.46

Structure: N#Cc1cc(Cl)cc(Oc2cc(F)c(Cl)c(OCc3n[nH]c4ncccc34)c2)c1
Qualifying Sign: =
pKi: 9.10

Structure: N#Cc1cc(Cl)cc(Oc2cc(OCc3noc4ncccc34)ccc2Cl)c1
Qualifying Sign: =
pKi: 8.68

Structure: N#Cc1cc(Cl)cc(Oc2cc(OCc3noc4nc(-n5ccnc5)ccc34)ccc2Cl)c1
Qualifying Sign: =
pKi: 9.10

Structure: N#Cc1cc(Cl)cc(Oc2cc(OCc3n[nH]c4ncccc34)ccc2Cl)c1
Qualifying Sign: =
pKi: 9.70

Structure: N#Cc1cc(Cl)cc(Oc2cc(OCc3noc4nc(N5CCOCC5)ccc34)ccc2Cl)c1
Qualifying Sign: =
pKi: 8.07

Structure: N#Cc1cc(Cl)cc(Oc2cc(OCc3noc4nc(N)ccc34)cc(F)c2Cl)c1
Qualifying Sign: =
pKi: 9.10

Structure: N#Cc1cc(Cl)cc(Oc2cc(OCc3noc4nc(N5CCCCC5)ccc34)ccc2Cl)c1
Qualifying Sign: =
pKi: 8.14

Structure: N#Cc1cc(Cl)cc(Oc2cc(OCc3n[nH]c4ncccc34)cc(Cl)c2Cl)c1
Qualifying Sign: =
pKi: 8.34

Structure: N#Cc1cc(Cl)cc(Oc2cc(OCc3n[nH]c4ncccc34)cc(F)c2Cl)c1
Qualifying Sign: =
pKi: 9.05

Structure: N#Cc1cc(Cl)cc(Oc2cc(OCc3noc4nc(N)ccc34)ccc2Cl)c1
Qualifying Sign: =
pKi: 9.40

Structure: N#Cc1cc(Cl)cc(Oc2cc(F)cc(OCc3n[nH]c4nc(N)ccc34)c2)c1
Qualifying Sign: =
pKi: 8.48

Structure: Cc1cc(OCc2n[nH]c3ncccc23)cc(Oc2cc(Cl)cc(C#N)c2)c1Cl
Qualifying Sign: =
pKi: 8.72

Structure: N#Cc1cc(Cl)cc(Oc2cc(OCc3noc4nc(C5=NCCN5)ccc34)ccc2Cl)c1
Qualifying Sign: =
pKi: 8.20
